- assaySystem: Mitogen-activated protein kinase kinase kinase kinase 2 (Homo sapiens)
- Sequence (Q12851 whole entry, the tested form may be a part): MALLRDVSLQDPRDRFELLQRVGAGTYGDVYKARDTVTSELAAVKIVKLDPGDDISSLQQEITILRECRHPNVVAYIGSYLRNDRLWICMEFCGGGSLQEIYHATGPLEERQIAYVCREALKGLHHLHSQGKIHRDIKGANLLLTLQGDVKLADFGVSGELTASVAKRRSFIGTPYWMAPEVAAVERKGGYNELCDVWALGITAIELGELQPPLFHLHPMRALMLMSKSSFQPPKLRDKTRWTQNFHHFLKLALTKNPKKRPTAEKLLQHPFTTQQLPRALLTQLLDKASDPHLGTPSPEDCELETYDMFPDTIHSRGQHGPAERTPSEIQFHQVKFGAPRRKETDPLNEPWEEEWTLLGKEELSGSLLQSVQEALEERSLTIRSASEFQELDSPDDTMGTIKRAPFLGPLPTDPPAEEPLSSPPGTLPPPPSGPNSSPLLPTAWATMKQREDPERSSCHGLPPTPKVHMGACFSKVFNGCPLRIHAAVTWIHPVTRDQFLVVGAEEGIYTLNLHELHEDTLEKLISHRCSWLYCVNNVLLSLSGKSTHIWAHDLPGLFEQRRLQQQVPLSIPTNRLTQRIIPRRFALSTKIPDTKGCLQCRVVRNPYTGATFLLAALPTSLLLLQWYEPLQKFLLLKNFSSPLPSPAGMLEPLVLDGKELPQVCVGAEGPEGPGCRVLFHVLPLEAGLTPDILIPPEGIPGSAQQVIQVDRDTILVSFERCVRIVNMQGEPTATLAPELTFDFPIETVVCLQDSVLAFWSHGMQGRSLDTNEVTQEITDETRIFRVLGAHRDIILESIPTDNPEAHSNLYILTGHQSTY
- assayComment: Inhibition of N-terminal GST tagged recombinant human MAP4K2 (1 to 820 residues) expressed in Sf21 insect cells preincubated for 10 min followed by fluorescein PKC and ATP addition and measured after 90 min by Envision2104 Multilabel Reader analysis
reportedProperty: pIC50
pIC50 is a log-scale quantity: -log10 of the concentration expressed in molar.

### Prompt Return reported pIC50. Input compound: `O=c1[nH]ccc2c(-c3cnc4cc(F)ccn34)ccc(Nc3ccc(C4CCOCC4)c(CN4CC[C@H](F)C4)n3)c12`
### Response 6.35

* * *

- assayComment: Oral bioavailability in in overnight fasted mouse at 10 mg/kg
- Format: ADME, organism-based
- setupConditions: in vivo
reportedProperty: bioavailability
Give the figure together with its unit, number first.

### Prompt Return reported bioavailability. Input compound: `CN(C)Cc1nc(Nc2ccc(-c3cnc4cc(F)ccn34)c3cn[nH]c(=O)c23)ccc1C1CCOCC1`
### Response 77%

### Prompt Return reported bioavailability. Input compound: `O=c1[nH]ccc2c(-c3cnc4cc(F)ccn34)ccc(Nc3ccc(C4CCOCC4)c(CN4CC[C@H](F)C4)n3)c12`
### Response 116%

### Prompt Return reported bioavailability. Input compound: `O=c1[nH]ncc2c(-c3cnc4cc(F)ccn34)ccc(Nc3ccc(C4CCOCC4)c(CN4CC[C@H](F)C4)n3)c12`
### Response 31%

### Prompt Return reported bioavailability. Input compound: `CN(C)Cc1nc(Nc2ccc(-c3cnc4cc(F)ccn34)c3cc[nH]c(=O)c23)ccc1C1CCOCC1`
### Response 86%

* * *

- assaySystem: Mitogen-activated protein kinase kinase kinase kinase 4 (Homo sapiens, UniProt O95819)
- Sequence (O95819 whole entry, the tested form may be a part): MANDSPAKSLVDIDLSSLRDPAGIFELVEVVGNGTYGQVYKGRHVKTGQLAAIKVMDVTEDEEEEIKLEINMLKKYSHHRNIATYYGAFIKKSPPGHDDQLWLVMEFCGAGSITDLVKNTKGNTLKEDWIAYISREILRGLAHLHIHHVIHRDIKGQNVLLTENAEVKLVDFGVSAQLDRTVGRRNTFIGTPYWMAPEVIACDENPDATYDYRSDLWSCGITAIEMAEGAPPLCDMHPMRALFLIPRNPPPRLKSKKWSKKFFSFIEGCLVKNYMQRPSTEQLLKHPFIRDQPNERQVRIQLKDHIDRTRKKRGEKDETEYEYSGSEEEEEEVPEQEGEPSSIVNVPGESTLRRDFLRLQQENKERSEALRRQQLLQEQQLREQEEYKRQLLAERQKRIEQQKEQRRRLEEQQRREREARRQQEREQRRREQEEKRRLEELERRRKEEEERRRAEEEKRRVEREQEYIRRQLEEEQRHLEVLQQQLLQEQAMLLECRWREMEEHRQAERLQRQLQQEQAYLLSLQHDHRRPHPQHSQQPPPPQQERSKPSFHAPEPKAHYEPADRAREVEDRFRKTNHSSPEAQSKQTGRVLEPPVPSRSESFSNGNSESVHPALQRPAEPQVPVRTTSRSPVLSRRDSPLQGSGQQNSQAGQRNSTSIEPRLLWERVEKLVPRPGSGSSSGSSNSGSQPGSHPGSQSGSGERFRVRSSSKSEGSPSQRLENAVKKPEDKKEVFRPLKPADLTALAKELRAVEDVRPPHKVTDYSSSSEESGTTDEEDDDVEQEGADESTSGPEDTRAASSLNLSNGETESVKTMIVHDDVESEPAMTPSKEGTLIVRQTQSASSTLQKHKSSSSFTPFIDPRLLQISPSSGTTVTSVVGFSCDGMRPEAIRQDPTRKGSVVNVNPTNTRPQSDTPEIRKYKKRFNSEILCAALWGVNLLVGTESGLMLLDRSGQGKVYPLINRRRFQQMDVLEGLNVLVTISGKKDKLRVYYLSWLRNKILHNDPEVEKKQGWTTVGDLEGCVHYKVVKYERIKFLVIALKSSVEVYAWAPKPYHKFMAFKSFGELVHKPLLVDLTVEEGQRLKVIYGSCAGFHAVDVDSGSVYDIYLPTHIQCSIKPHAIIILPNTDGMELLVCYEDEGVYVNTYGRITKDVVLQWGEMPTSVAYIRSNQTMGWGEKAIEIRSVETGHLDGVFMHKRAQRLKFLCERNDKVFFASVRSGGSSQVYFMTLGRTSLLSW
- assayComment: Inhibition of N-terminal GST-tagged recombinant human MAP4K4 (1 to 328 residues) expressed in Sf21 insect cells preincubated for 10 min followed by fluorescein PKC and ATP addition and measured after 90 min by Envision2104 Multilabel Reader analysis
reportedProperty: IC50
Give the figure together with its unit, number first.

### Prompt Please report the measured IC50 for `O=c1[nH]ccc2c(-c3cnc4cc(F)ccn34)ccc(Nc3ccc(C4CCOCC4)c(CN4CC[C@H](F)C4)n3)c12` tested on Mitogen-activated protein kinase kinase kinase kinase 4 (Homo sapiens, UniProt O95819).
### Response 665 nM

* * *

- assaySystem: Voltage-gated inwardly rectifying potassium channel KCNH2 (Homo sapiens)
- Sequence (Q12809 whole entry): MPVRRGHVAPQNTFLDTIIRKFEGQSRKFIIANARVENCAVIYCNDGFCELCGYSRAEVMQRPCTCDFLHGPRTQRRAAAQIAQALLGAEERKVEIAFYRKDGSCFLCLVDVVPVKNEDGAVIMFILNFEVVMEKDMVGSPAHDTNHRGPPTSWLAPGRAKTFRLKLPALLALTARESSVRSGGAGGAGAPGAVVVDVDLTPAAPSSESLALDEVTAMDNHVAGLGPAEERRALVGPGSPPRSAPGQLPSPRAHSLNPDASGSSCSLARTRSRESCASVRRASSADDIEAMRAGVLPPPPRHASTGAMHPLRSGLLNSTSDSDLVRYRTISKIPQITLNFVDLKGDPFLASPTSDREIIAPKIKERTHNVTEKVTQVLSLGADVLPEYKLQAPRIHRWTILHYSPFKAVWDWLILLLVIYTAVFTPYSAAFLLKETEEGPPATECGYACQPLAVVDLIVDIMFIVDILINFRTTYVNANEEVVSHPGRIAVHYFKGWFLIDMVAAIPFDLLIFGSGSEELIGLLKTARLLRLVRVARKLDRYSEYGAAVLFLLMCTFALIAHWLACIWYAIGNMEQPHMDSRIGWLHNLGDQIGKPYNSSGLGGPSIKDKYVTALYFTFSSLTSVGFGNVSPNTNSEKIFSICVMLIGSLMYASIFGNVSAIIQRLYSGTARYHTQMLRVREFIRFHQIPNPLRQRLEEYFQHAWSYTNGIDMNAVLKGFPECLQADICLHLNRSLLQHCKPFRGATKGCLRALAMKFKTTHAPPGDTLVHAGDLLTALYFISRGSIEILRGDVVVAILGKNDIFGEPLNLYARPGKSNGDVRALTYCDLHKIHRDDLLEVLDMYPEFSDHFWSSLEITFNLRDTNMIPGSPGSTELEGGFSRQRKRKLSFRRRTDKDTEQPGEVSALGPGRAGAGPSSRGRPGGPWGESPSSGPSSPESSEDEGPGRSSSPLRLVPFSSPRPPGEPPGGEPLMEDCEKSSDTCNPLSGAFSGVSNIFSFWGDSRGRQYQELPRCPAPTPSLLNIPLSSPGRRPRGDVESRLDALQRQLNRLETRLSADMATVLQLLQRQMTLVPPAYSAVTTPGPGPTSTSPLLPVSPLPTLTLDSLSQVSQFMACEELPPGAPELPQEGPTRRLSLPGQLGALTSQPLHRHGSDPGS
- assayComment: Inhibition of HERG expressed in HEK293 cells at -80mV holding potential incubated for 24 to 48 hrs by whole-cell patch clamp method
reportedProperty: IC50
Give the figure together with its unit, number first.

### Prompt Return reported IC50. Input compound: `CN(C)Cc1nc(Nc2ccc(-c3cnc4cc(F)ccn34)c3c2C(=O)NC3)ccc1C1CCOCC1`
### Response 2.85 µM

* * *

- assayComment: Oral bioavailability in in overnight fasted rat at 10 mg/kg
- Type: ADME, organism-based
- setupConditions: in vivo
reportedProperty: bioavailability (%)
Answer with a number only, understood to be in %.

### Prompt Return reported bioavailability. Input molecule: `O=c1[nH]ccc2c(-c3cnc4cc(F)ccn34)ccc(Nc3ccc(C4CCOCC4)c(CN4CC[C@H](F)C4)n3)c12`
### Response 80

* * *

- assaySystem: Misshapen-like kinase 1 (Homo sapiens, UniProt Q8N4C8)
- Sequence (Q8N4C8 whole entry, the tested form may be a part): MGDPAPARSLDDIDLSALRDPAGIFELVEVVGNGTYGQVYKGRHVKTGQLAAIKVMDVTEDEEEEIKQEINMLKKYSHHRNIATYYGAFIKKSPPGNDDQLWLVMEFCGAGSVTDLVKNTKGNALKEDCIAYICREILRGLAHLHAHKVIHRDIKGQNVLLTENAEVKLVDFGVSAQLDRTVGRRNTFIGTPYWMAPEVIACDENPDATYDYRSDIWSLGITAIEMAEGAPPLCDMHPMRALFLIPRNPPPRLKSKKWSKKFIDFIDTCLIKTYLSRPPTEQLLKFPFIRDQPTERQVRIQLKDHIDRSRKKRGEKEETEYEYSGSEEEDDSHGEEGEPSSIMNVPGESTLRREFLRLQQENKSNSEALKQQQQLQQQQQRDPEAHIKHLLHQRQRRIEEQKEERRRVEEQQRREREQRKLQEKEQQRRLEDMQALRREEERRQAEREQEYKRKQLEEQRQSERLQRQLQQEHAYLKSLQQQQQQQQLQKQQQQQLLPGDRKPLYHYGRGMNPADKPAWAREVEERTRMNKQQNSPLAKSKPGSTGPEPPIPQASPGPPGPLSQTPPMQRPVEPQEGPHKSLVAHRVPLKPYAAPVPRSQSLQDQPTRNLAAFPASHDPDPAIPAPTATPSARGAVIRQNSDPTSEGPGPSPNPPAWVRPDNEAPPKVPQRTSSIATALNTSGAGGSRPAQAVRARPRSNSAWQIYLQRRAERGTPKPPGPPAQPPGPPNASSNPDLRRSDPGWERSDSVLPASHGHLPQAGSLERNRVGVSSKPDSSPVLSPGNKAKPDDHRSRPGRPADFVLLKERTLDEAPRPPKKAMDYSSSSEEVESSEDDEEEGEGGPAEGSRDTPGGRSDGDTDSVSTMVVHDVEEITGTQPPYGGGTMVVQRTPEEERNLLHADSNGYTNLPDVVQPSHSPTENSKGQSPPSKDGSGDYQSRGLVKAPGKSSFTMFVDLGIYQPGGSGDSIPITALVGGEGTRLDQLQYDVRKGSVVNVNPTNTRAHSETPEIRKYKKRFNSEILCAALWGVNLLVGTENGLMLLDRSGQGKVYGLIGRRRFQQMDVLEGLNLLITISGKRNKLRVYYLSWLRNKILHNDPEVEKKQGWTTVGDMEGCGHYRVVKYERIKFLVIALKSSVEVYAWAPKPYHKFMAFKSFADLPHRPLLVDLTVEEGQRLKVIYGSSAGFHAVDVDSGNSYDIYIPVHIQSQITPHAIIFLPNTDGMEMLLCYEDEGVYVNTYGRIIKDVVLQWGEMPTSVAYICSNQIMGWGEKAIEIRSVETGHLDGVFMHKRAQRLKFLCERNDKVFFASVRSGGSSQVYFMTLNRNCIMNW
- assayComment: Inhibition of N-terminal GST-tagged recombinant human MAP4K6 (7 to 139 residues) expressed in Sf21 insect cells preincubated for 10 min followed by fluorescein PKC and ATP addition and measured after 90 min by Envision2104 Multilabel Reader analysis
reportedProperty: IC50 (µM)
Answer with a number only, understood to be in µM.

### Prompt Return reported IC50. Input compound: `O=c1[nH]ccc2c(-c3cnc4cc(F)ccn34)ccc(Nc3ccc(C4CCOCC4)c(CN4CC[C@H](F)C4)n3)c12`
### Response 0.168
